Data provenance is patent US20020177126A1.

# testedOn: F protein of wild type RSV A/Long (respiratory syncytial virus, strain …, UniProt P12568 26-574)
# Sequence (P12568 26-574): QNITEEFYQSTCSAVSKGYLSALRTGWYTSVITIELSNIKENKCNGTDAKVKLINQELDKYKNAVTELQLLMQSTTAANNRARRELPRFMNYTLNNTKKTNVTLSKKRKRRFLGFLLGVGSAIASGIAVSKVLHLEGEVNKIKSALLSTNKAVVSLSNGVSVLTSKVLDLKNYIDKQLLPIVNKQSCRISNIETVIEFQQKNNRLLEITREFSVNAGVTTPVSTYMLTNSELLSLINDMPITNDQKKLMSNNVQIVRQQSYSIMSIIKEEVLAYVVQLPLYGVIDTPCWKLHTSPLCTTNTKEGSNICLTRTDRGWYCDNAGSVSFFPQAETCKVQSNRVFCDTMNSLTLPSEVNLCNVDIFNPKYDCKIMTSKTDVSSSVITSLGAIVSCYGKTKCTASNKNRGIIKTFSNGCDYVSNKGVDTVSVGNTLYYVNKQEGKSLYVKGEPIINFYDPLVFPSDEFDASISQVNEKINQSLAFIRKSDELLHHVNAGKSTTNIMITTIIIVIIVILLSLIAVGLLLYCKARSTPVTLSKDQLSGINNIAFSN
# protocolDetails: cell-based or functional assay
measuredEndpoint: EC50, RSV (Long) microneutralization (nM)
Field format: number, assumed nM, no unit text.

Any idea what its EC50, RSV (Long) microneutralization is? The binder is SYNAGIS® (antibody, V domains shown, also called SYNAGIS ®/SYNAGIS ® (HC/LC)) VH: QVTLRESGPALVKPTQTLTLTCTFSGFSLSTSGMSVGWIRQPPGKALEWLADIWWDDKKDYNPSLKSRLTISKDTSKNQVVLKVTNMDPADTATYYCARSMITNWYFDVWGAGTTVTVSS VL: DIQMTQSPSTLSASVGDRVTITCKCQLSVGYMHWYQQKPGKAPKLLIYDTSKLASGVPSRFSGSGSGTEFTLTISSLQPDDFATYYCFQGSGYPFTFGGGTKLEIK
3.57

Input P12f4 (Fab) (Fab, V domains shown) VH: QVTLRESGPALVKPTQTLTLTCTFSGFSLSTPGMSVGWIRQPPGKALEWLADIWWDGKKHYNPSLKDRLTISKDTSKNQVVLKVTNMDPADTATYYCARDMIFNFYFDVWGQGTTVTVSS VL: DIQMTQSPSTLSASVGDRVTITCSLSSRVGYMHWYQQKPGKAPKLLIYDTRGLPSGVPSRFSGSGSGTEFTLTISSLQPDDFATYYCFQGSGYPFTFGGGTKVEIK
0.7
